Kindly state abundance fitness for each of the entries shown.
B1: Chromodomain-helicase-DNA-binding protein 4, residues 365 to 417; numbered along this chain, Q14839 (parent)
chain: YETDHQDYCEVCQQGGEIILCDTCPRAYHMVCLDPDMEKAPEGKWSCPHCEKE

Variants of: B1
TEST_SUMMARY: abundance fitness (aPCA) (normalised: wild type 0, dead -1); higher = more abundant; growth selection in yeast, the domain comes from the species named
TEST_CONTEXT: Homo sapiens
Provide a numeric answer; units are not to be included.

Which abundance fitness value belongs to `H5G` ? 0.158

Try this variant too: `L33Y` -0.025

Try this variant too: `S46H` 0.068

Try this variant too: `A40K` -0.043

Try this variant too: `V31E` -0.089

Try this variant too: `R26T` -0.191

Try this variant too: `Y8W` -0.107

Try this variant too: `G15D` 0.176

Try this variant too: `C12L` -0.962

Try this variant too: `E53I` -0.335

Try this variant too: `E38C` -0.028
